Recorded MIC values for a group of compounds are listed next.
Test system: Staphylococcus aureus
Assay: Antibacterial activity against methicillin-resistant Staphylococcus aureus clinical isolate M-12 assessed as inhibition of visible growth incubated for 16 to 18 hrs by CLSI method
Format: functional
Details: time 16-18 hrs, read-out: MIC100

chem smiles	MIC / µg/mL
C=CCc1ccc(OCCC[N+](C)(C)CC(=O)NCCCCC)c(-c2ccc(OCCC[N+](C)(C)CC(=O)NCCCCC)c(CC=C)c2)c1.[Br-].[Br-]	2
C=CCc1ccc(OCCCC[N+](C)(C)CC(=O)NCCCC)c(-c2ccc(OCCCC[N+](C)(C)CC(=O)NCCCC)c(CC=C)c2)c1.[Br-].[Br-]	2
C=CCc1ccc(OCCCC[N+](C)(C)CC(=O)NCCCCC)c(-c2ccc(OCCCC[N+](C)(C)CC(=O)NCCCCC)c(CC=C)c2)c1.[Br-].[Br-]	2
C=CCc1ccc(O)c(-c2cc(CC=C)ccc2OCCCC[N+](C)(C)CC(=O)NCCCC)c1.[Br-]	2
C=CCc1ccc(O)c(-c2cc(CC=C)ccc2OCCCC[N+](C)(C)CC(=O)NCCCCC)c1.[Br-]	4
C=CCc1ccc(O)c(-c2cc(CC=C)ccc2OCC[N+](C)(C)CC(=O)NCCCCC)c1.[Br-]	16
C=CCc1ccc(O)c(-c2cc(CC=C)ccc2OCCC[N+](C)(C)CC(=O)NCCCCCC)c1.[Br-]	2
C=CCc1ccc(OCC[N+](C)(C)CC(=O)NCCC)c(-c2ccc(OCC[N+](C)(C)CC(=O)NCCC)c(CC=C)c2)c1.[Br-].[Br-]	8
CN(C)c1cc(NC(=O)CNC(C)(C)C)c(O)c2c1C[C@H]1C[C@H]3[C@H](N(C)C)C(O)=C(C(N)=O)C(=O)[C@@]3(O)C(O)=C1C2=O	1
C=CCc1ccc(OCC[N+](C)(C)CC(=O)N(CCCC)CCCC)c(-c2ccc(OCC[N+](C)(C)CC(=O)N(CCCC)CCCC)c(CC=C)c2)c1.[Br-].[Br-]	4
C=CCc1ccc(O)c(-c2cc(CC=C)ccc2OCC[N+](C)(C)CC(=O)NCCCCCC)c1.[Br-]	8
C=CCc1ccc(OCCC[N+](C)(C)CC(=O)NCCC)c(-c2ccc(OCCC[N+](C)(C)CC(=O)NCCC)c(CC=C)c2)c1.[Br-].[Br-]	4
C=CCc1ccc(OCC[N+](C)(C)CC(=O)NCC)c(-c2ccc(OCC[N+](C)(C)CC(=O)NCC)c(CC=C)c2)c1.[Br-].[Br-]	8
C=CCc1ccc(O)c(-c2cc(CC=C)ccc2OCCCC[N+](C)(C)CC(=O)N(CCCC)CCCC)c1.[Br-]	16
C=CCc1ccc(O)c(-c2cc(CC=C)ccc2OCCC[N+](C)(C)CC(=O)NCCCCC)c1.[Br-]	2

----------
Experiment: Hemolytic activity in sheep RBC assessed as hemolysis incubated for 1 hr
Assay type: ADME, cell-based, Ovis aries, Erythrocyte
Conditions: sheep red blood cells (erythrocytes)
Recorded HC50 at 1 h values for a group of compounds are listed next.

chem smiles	unit abbreviation	HC50 at 1 h
C=CCc1ccc(OCCCC[N+](C)(C)CC(=O)NCC)c(-c2ccc(OCCCC[N+](C)(C)CC(=O)NCC)c(CC=C)c2)c1.[Br-].[Br-]	µg/mL	883
C=CCc1ccc(O)c(-c2cc(CC=C)ccc2OCCCC[N+](C)(C)CC(=O)NCCCCC)c1.[Br-]	µg/mL	643
C=CCc1ccc(O)c(-c2cc(CC=C)ccc2OCCC[N+](C)(C)CC(=O)NCCCC)c1.[Br-]	µg/mL	596
